Provenance of the data: patent US20060228349A1

Recorded Kd, one value per entry.
Molecular target: T1, biotin-Aβ1-20 (biotin (position not given))
T1 peptide: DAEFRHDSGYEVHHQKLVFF
Experiment: BIACORE, biotin-Aβ1-20 as antigen; column IgG1#1
Report as a plain number; the unit nM is understood.

binder | unit_info | Kd
20C2-8B, affinity matured humanized 20C2, IgG1 humanized B version (antibody, V domains shown, also called SJ-p2-39) VH: QVTLKESGPALVKPTQTLTLTCTLSGFSLSTSGMGVGWIRQPPGKALEWLAHIWWDDDKSYNPSLKSRLTISKDTSKNQVVLTMTNMDPVDTATYYCARRQLGLRSIDAMDYWGQGTTVTVSS VL: DVVMTQSPLSLPVTPGEPASISCRSSQSILHSNGNTYLEWYLQKPGQSPQLLIYKVSNRFSGVPDRFSGSGSGTDFTLKISRVEAEDVGVYYCLQTTRVPLTFGQGTKLEIKR | nM | 0.046
20C2-3A, affinity matured humanized 20C2, IgG1 humanized A version (antibody, V domains shown, also called SJ-p3-16) VH: QVTLKESGPALVKPTQTLTLTCTFSGFSLSTSGMGVGWIRQPPGKALEWLAHIWWDDDKSYNPSLKSRLTISKDTSKNQVVLTMTNMDPVDTATYYCARRQLGLRSIDAMDYWGQGTTVTVSS VL: DVVMTQSPLSLPVTPGEPASISCRSSQSILHSNGNTYLEWYLQKPGQSPQLLIYKVSNRFSGVPDRFSGSGSGTDFTLKISRVEAEDVGVYYCFQGSFIPGTFGQGTKLEIKR | nM | 1.7

Now look at this entry.
Looking for the measured Kd of 20C2-13A, affinity matured humanized 20C2, IgG1 humanized A version (antibody, V domains shown, also called 4p1-20; 4P1-20) VH: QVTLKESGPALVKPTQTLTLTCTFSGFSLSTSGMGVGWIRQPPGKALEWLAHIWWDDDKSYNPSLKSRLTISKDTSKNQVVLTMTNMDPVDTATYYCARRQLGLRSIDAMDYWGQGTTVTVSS VL: DVVMTQSPLSLPVTPGEPASISCRSSQSILHSNGNTYLEWYLQKPGQSPQLLIYKVSNRFSGVPDRFSGSGSGTDFTLKISRVEAEDVGVYYCLQTSNVPLTFGQGTKLEIKR , can you help? 3
